# system_tested: Mu-type opioid receptor (Rattus norvegicus, UniProt P33535)
# Sequence (P33535 whole entry): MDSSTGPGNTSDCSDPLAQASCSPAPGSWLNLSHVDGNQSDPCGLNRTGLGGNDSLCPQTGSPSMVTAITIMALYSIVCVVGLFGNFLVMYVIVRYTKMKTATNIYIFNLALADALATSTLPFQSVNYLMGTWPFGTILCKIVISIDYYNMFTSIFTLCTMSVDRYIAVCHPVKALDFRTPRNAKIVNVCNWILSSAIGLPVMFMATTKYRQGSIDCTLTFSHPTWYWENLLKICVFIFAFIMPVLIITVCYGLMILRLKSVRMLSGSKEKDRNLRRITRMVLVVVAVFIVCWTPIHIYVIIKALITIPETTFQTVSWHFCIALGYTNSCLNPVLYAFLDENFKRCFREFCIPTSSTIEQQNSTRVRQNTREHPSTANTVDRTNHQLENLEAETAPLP
reported_metric: pIC50
The value called pIC50 is obtained by taking minus log10 of the concentration in mol/L.

Prompt line: Fill blank: measured pIC50 of the compound C[C@@H](O)[C@H](NC(=O)[C@H]1NC(=O)[C@H]([C@@H](C)O)NC(=O)[C@H](CCCCN)NC(=O)C(Cc2c[nH]c3ccccc23)NC(=O)[C@H](Cc2ccc(O)cc2)NC(=O)[C@@H](NC(=O)C(N)Cc2c[nH]c3ccccc23)CSSC1(C)C)C(N)=O (stereo in doubt) is ____.
Response line: 8.20

Prompt line: Try this compound too: CC(C)[C@H](NC(=O)[C@H]1NC(=O)[C@H]([C@@H](C)O)NC(=O)[C@H](CCCCN)NC(=O)[C@@H](Cc2c[nH]c3ccccc23)NC(=O)[C@H](Cc2ccc(O)cc2)NC(=O)[C@@H](NC(=O)[C@H]2Cc3ccccc3CN2)CSSC1(C)C)C(N)=O
Response line: 7.34

* * *

# protocol_description: Ratio of selective binding affinity of mu receptor to that of somatostatin receptor
Answer each item with its documented Ratio.
Give your answer as a number; write no unit.

Prompt line: Fill blank: measured Ratio of the molecule CC(C)[C@H](NC(=O)[C@H]1NC(=O)[C@H]([C@@H](C)O)NC(=O)[C@H](CCCCN)NC(=O)[C@H](Cc2c[nH]c3ccccc23)NC(=O)[C@H](Cc2ccc(O)cc2)NC(=O)[C@@H](NC(=O)[C@H]2Cc3ccccc3CN2)CSSC1(C)C)C(N)=O is ____.
Response line: 43

Prompt line: Try this molecule too: C[C@@H](O)[C@H](NC(=O)[C@H]1NC(=O)[C@H]([C@@H](C)O)NC(=O)[C@H](CCCN)NC(=O)C(Cc2c[nH]c3ccccc23)NC(=O)[C@@H](Cc2ccc(O)cc2)NC(=O)[C@@H](NC(=O)[C@H]2Cc3ccccc3CN2C(=O)CN)CSSC1(C)C)C(N)=O (stereo in doubt)
Response line: 70

Prompt line: Try this molecule too: C[C@@H](O)[C@@H]1NC(=O)[C@H](CCCCN)NC(=O)C(Cc2c[nH]c3ccccc23)NC(=O)[C@H](Cc2ccc(O)cc2)NC(=O)[C@@H](NC(=O)[C@H](N)Cc2ccccc2)CSSC(C)(C)[C@@H](C(=O)N[C@@H](CC(N)=O)C(N)=O)NC1=O (stereo in doubt)
Response line: 6.3

* * *

Answer each item with its documented IC50.
# system_tested: Somatostatin receptor
# protocol_description: Binding affinity in competition with [125I]- CGP-23996 in somatostatin receptor binding to rat brain membrane
Report only the number, with the unit µM understood.

Prompt line: Fill blank: measured IC50 of the compound C[C@@H](O)[C@H](NC(=O)[C@H]1NC(=O)[C@H]([C@@H](C)O)NC(=O)[C@H](CCCCN)NC(=O)C(Cc2c[nH]c3ccccc23)NC(=O)[C@@H](Cc2ccc(O)cc2)NC(=O)[C@@H](NC(=O)[C@H]2Cc3ccccc3CN2)CSSC1(C)C)C(N)=O (stereo in doubt) is ____.
Response line: 0.949

Prompt line: Try this compound too: C[C@@H](O)[C@H](NC(=O)[C@H]1NC(=O)[C@H](CCCCN)NC(=O)C(Cc2c[nH]c3ccccc23)NC(=O)[C@@H](Cc2ccc(O)cc2)NC(=O)[C@@H](NC(=O)[C@H]2Cc3ccccc3CN2)CSSC1(C)C)C(N)=O (stereo in doubt)
Response line: 13.61

Prompt line: Try this compound too: CN[C@H](Cc1ccccc1)C(=O)N[C@H]1CSSC(C)(C)[C@@H](C(=O)N[C@H](C(N)=O)[C@@H](C)O)NC(=O)[C@H]([C@@H](C)O)NC(=O)[C@H](CCCN)NC(=O)C(Cc2c[nH]c3ccccc23)NC(=O)[C@H](Cc2ccc(O)cc2)NC1=O (stereo in doubt)
Response line: 8.054

Prompt line: Try this compound too: C[C@@H](O)[C@@H]1NC(=O)[C@H](CCCN)NC(=O)C(Cc2c[nH]c3ccccc23)NC(=O)[C@H](Cc2ccc(O)cc2)NC(=O)[C@@H](NC(=O)[C@H](N)Cc2ccccc2)CSSC(C)(C)[C@@H](C(N)=O)NC1=O (stereo in doubt)
Response line: 47.273

These entries and their values trace back to ChEMBL document CHEMBL1124009.
